Recorded values, source paper PMC9264488.

# measured target: fatty acid amide hydrolase (r-FAAH) (Rattus norvegicus)
pIC50: −log10 of the molar value.
recorded metric: pIC50

• CNC(=O)c1cccc(-c2cc(OC(=O)NC3CCCCC3)ccc2F)c1 = 8.85

###

# measured target: fatty acid amide hydrolase (r-FAAH) (Rattus norvegicus, UniProt P97612)
# Sequence (P97612 whole entry): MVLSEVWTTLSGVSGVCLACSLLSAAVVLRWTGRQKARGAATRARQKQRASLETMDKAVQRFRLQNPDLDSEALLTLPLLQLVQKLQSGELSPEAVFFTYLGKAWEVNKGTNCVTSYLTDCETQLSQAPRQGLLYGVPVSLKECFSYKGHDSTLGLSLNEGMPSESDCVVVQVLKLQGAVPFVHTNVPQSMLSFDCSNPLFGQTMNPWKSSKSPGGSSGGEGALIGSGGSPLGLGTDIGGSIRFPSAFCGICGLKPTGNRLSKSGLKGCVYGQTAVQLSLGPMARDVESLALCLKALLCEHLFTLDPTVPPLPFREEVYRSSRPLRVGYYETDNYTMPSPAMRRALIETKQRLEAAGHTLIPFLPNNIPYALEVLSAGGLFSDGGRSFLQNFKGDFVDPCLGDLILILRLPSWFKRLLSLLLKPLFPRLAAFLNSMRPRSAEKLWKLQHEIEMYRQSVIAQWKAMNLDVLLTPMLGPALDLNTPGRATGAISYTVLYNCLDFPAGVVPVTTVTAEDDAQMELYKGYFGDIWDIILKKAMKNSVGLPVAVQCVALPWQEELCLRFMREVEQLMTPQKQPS
# experiment: biochemical
recorded metric: IC50 (nM)

* NC(=O)c1cccc(-c2cc(OC(=O)NC3CCCCC3)ccc2OC(F)F)c1 | 1.5
